The entries below are paired with their reported hemolysis at 1 h, 150 µM.
EXPERIMENT NOTES: in vitro
Format: cell-based, human
MEASUREMENT PARAMETERS: human
Square brackets hold non-standard residues; d marks the D form. Peptide text beside a SMILES is read from it. 2Nal = N[C@@H](Cc1ccc2ccccc2c1)C(=O)O; Nlys = NCCCCNCC(=O)O

Below: 5 compounds and their reported hemolysis at 1 h, 150 µM.
CC(C)C[C@H](NC(=O)[C@H](CCCCN)NC(=O)[C@@H](N)CCCCN)C(=O)N[C@@H](CCCCN)C(=O)N[C@@H](Cc1ccc2ccccc2c1)C(=O)N[C@@H](Cc1ccccc1)C(=O)N[C@@H](Cc1ccc2ccccc2c1)C(N)=O [Compound 1] (HELM PEPTIDE1{K.K.L.K.[O=C([C@H](Cc1ccc2ccccc2c1)N[*:1])[*:2]].F.[O=C([C@H](Cc1ccc2ccccc2c1)N[*:1])[*:2]].[am]}$$$$V2.0)
< 8%
CCCC[C@H](NC(=O)[C@H](CCCCN)NC(=O)[C@H](CCCCN)NC(=O)[C@@H](N)CCCCN)C(=O)N[C@@H](Cc1ccc2ccccc2c1)C(=O)N[C@@H](Cc1ccc(O)cc1)C(=O)N[C@@H](Cc1ccc2ccccc2c1)C(N)=O [Compound 22] (HELM PEPTIDE1{K.K.K.[Nle].[O=C([C@H](Cc1ccc2ccccc2c1)N[*:1])[*:2]].Y.[O=C([C@H](Cc1ccc2ccccc2c1)N[*:1])[*:2]].[am]}$$$$V2.0)
23.7%
CC(C)C[C@H](NC(=O)CN(CCCCN)C(=O)CN(CCCCN)C(=O)CNCCCCN)C(=O)N[C@@H](Cc1ccc2ccccc2c1)C(=O)N[C@@H](Cc1ccccc1)C(=O)N[C@@H](Cc1ccc2ccccc2c1)C(N)=O [Compound 23] (H-[Nlys][Nlys][Nlys]L[2Nal]F[2Nal]-NH2)
35.9%
CCCC[C@H](NC(=O)[C@H](CCCCN)NC(=O)[C@H](CCCCN)NC(=O)[C@@H](N)CCCCN)C(=O)N[C@@H](Cc1ccc2ccccc2c1)C(=O)N[C@@H](Cc1ccccc1)C(=O)N[C@@H](Cc1ccc2ccccc2c1)C(N)=O [Compound 18] (HELM PEPTIDE1{K.K.K.[Nle].[O=C([C@H](Cc1ccc2ccccc2c1)N[*:1])[*:2]].F.[O=C([C@H](Cc1ccc2ccccc2c1)N[*:1])[*:2]].[am]}$$$$V2.0)
58.8%
CC(C)C[C@@H](NC(=O)[C@H](CCCCN)NC(=O)[C@@H](Cc1ccc2ccccc2c1)NC(=O)[C@@H](Cc1ccccc1)NC(=O)[C@H](N)Cc1ccc2ccccc2c1)C(=O)N[C@@H](CCCCN)C(=O)N[C@@H](CCCCN)C(N)=O [Compound 3] (HELM PEPTIDE1{[N[C@H](Cc1ccc2ccccc2c1)C(=O)[*:2]].[dF].[O=C([C@@H](Cc1ccc2ccccc2c1)N[*:1])[*:2]].K.[dL].K.K.[am]}$$$$V2.0)
< 8%

Moving on to the next compound.
Lookup: I'd like to know its hemolysis at 1 h, 150 µM. The compound in question is CC(C)C[C@H](NC(=O)[C@H](CCCCN)NC(=O)[C@H](CCCCN)NC(=O)[C@@H](N)CCCCN)C(=O)N[C@@H](Cc1ccc2ccccc2c1)C(=O)N[C@@H](Cc1ccc(O)cc1)C(=O)N[C@@H](Cc1ccc2ccccc2c1)C(N)=O [Compound 17] (HELM PEPTIDE1{K.K.K.L.[O=C([C@H](Cc1ccc2ccccc2c1)N[*:1])[*:2]].Y.[O=C([C@H](Cc1ccc2ccccc2c1)N[*:1])[*:2]].[am]}$$$$V2.0)
Found: 78.1%
